Source of measurements: ChEMBL document CHEMBL1127669

Could you please report measured Ki for the items listed next?
Target: Integrin alpha-IIb/beta-3 (Homo sapiens, UniProt P05106+P08514)
Sequence (P05106 27-788 limits assumed): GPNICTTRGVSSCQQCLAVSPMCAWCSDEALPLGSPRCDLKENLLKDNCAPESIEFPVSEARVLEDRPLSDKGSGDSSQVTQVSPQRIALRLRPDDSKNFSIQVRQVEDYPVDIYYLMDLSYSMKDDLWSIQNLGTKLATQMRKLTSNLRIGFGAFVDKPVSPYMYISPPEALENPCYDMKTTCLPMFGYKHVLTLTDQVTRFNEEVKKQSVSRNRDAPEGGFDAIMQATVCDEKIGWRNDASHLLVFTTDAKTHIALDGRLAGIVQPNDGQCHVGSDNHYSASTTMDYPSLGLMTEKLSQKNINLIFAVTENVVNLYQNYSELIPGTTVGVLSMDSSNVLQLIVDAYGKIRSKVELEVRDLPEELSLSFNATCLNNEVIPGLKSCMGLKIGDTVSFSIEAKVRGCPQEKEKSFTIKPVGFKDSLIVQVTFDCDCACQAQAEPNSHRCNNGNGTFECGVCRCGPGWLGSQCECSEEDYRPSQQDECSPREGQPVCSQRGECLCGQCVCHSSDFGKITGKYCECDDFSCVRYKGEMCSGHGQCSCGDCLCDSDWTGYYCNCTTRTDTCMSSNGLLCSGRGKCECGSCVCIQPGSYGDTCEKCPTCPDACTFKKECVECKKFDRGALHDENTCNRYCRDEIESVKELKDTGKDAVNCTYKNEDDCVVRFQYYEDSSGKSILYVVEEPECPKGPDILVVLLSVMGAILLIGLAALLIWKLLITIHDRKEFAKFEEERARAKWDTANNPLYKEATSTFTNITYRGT
Sequence (P08514 32-887 limits assumed): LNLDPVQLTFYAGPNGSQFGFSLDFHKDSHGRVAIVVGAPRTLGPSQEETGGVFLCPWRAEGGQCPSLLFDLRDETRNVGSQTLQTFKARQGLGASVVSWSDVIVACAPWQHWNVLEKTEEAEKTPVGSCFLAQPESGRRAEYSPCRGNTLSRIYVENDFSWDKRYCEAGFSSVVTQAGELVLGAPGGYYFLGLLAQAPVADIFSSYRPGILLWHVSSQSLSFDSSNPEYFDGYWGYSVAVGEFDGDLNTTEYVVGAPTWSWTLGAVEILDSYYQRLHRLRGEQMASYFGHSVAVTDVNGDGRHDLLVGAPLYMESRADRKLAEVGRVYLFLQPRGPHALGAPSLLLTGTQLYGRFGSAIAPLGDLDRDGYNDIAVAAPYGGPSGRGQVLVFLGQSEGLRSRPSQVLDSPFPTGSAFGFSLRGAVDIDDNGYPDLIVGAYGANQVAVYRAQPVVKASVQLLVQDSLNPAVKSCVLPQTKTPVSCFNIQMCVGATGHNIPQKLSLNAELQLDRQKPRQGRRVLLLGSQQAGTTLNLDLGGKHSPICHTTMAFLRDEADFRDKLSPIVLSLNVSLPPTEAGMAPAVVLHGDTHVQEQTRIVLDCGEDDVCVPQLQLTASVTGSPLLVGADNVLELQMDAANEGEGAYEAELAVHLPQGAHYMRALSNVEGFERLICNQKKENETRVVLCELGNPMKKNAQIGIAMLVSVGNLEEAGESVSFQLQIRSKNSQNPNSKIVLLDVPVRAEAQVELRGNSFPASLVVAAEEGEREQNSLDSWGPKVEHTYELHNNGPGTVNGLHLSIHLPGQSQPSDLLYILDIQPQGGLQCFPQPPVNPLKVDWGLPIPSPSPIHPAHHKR
Sequence (P08514 891-1039 limits assumed): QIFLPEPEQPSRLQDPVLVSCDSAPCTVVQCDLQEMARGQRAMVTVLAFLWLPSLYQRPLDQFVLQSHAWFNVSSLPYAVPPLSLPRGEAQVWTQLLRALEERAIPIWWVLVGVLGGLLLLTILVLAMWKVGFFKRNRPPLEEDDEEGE
Assay: Tested for inhibition of fibrinogen binding to purified GPIIb/IIIa isolated from human platelets and reconstituted in liposomes
Give your result in nM as a bare value.

Ask: Record request: Ki value, item CC(=O)N[C@@H]1CSSC(C)(C)[C@H](C(N)=O)NC(=O)[C@@H](CC(=O)O)NC(=O)CNC(=O)[C@H](CCCNC(=N)N)NC1=O
Reply: 720

Ask: Record request: Ki value, item N=C(N)NCCC[C@@H]1NC(=O)c2ccccc2SSc2ccccc2NC(=O)[C@H](CC(=O)O)NC(=O)CNC1=O (single isomer, unassigned)
Reply: 27

Ask: Record request: Ki value, item CC(=O)N[C@H]1CSSC(C)(C)[C@@H](C(N)=O)NC(=O)[C@H](CC(=O)O)N(C)C(=O)CNC(=O)[C@H](CCCNC(=N)N)NC1=O (single isomer, unassigned)
Reply: 25300
